system: TK-10 renal; assay: NCI-60 one-dose screen, 48 h; conditions: 10 µM unless noted
About 83,000 compounds went through this panel and 20% of them were active in at least one assay; those are over-represented in the sample as a whole. Calls of active or inactive are those of the source. How the source made its calls: active means growth percent below 10; inactive means the rest.
Your reply should match one of these outcome classes. true (1) (active), false (0) (inactive)

Worked examples follow.
CCc1nc2ccccc2[nH]1; false (0)
CCN(CC)N=Nc1nn(C(=O)Nc2ccc(Cc3ccccc3)cc2)c2ccc(Cl)cc12; false (0)
COc1ccc(/C(C)=C(\c2ccc(Cl)cc2)c2ccc(OCCCN(C)C)cc2)cc1F; false (0)
CCCCN(Cc1ccc(C(=O)NO)cc1)C(=O)Nc1ccc(OCCCCCCCCCn2cc(CCCCC(=O)N[C@H](C(=O)N3C[C@H](O)C[C@H]3C(=O)NCc3ccc(-c4scnc4C)cc3)C(C)(C)C)nn2)cc1; false (0)

Q) # outcome recorded in this test, key = c1ccc(-c2oc3ccccc3c2-c2ccccc2)cc1
A) false (0)

Q) What classification did CC(C)n1nc(C#Cc2cccc(NC(=O)c3cccc(C(F)(F)F)c3)c2)c2c(N)ncnc21 end up with in this test?
A) true (1)

---

Can you tell me growth for the items I'm about to list?
tested on: CAKI-1 renal; test: NCI-60 one-dose screen, 48 h (100 = growth as untreated, 0 = no growth, -100 = all killed); conditions: 10 µM unless noted
The panel holds about 83,000 compounds, 20% with a hit somewhere; the sample as a whole holds those more often. Activity calls are given as the source filed them. How the source made its calls: active means growth percent below 10; inactive means the rest.

CCCCN(CCCC)CCCn1c(=O)c2sc3ncccc3c2n2nnc(-c3ccccc3)c12; -87.9% (active)

# return growth for each item in the list
1. Cc1ccc(/C(=N\N=C(N)N)c2ccccc2)cc1
2. CCN(CC)CCCNC(=O)c1ccc(N)cc1O
3. O=C(c1ccccc1)c1ccc(N2C(=O)C3C4c5ccccc5C(/C=C/C(=O)c5ccccn5)(c5ccccc54)C3C2=O)cc1 (stereo not drawn)
4. Cn1cc(-c2ccc3nc(-c4ccc(CC(=O)Nc5cc(C(C)(C)C)no5)cc4)cnc3c2)cn1
5. Clc1cnc(Nc2ccc(OCCN3CCCC3)cc2)nc1NCc1ccco1
6. COc1ccc(NC(=O)C(=O)c2c[nH]c3ccc(F)cc23)cc1
7. Cl.Fc1c[c-]c(-c2ccccn2)c(F)c1.[Pt].c1ccc([PH+](C[PH+](c2ccccc2)c2ccccc2)c2ccccc2)cc1

A)
["41.2% (inactive)", "106% (inactive)", "49.3% (inactive)", "6.29% [30 µM] (active)", "10% (inactive)", "93.1% (inactive)", "-91% (active)"]

Would you be so kind as to report growth for each listed record?
1. O=C1CSC(c2ccc(O)cc2)N1c1nnc(Cn2cnnc2)o1 (stereo not drawn)
2. COC1=CC(c2ccc[nH]2)=N/C1=C\c1[nH]c(C)c(C(=O)OCCn2cc(CCC[C@@H]3Cc4cc(O)ccc4C4CC[C@]5(C)[C@@H](O)CC[C@H]5C43)nn2)c1C (stereo partly drawn)
3. N=C(N)c1ccc(-c2ccc(-c3ccc(Cl)cn3)s2)cc1
4. CC1(C)CC(=O)c2c(ccc(C(=O)C[C@H](N)CO)c2N)O1
5. COc1cc(CNC(=O)/C=C/C=C/c2ccc3c(c2)OCO3)ccc1OCc1cn(-c2ccc(Cl)c(Cl)c2)nn1

A)
79.4% (inactive)
46.4% (inactive)
63.2% (inactive)
20.3% (inactive)
-17% (active)

// for each molecule below, give its growth
1. OC(c1cccc(OCc2ccccc2)c1)c1nnc(-c2ccccc2)o1 (stereo not drawn)
2. CC(C)(C)Nc1c(-c2c3ccccc3cc3ccccc23)nc2ccccn12
3. Clc1ccc2[nH]c3c(NCCCN4CCOCC4)ncnc3c2c1
4. N#Cc1c(-c2ccc(C(F)(F)F)cc2)cc(N2CC(O)C2)n2c1nc1ccccc12

A)
1. 95.2% (inactive)
2. 50.1% (inactive)
3. 75.9% (inactive)
4. 72.1% (inactive)

Hello, I would appreciate it if you could give growth for each entry below.
1. COC(=O)[C@]12CC[C@@H](C)[C@H](C)[C@@H]1C1=CC[C@@H]3[C@@]4(C)C(C=O)=C[C@@](C)(CO)C4=CC[C@@]3(C)[C@]1(C)CC2
2. O=C1Nc2ccc(Cl)cc2/C1=N/N=C/c1c[nH]c2ccccc12
3. COc1cc2oc3cc(C)oc(=O)c3c2cc1OC
4. O=C1Nc2ccccc2/C1=N/N=C/c1c[nH]c2ccccc12
5. O=c1oc2ccc(Cl)cc2cc1-c1cs/c(=N/N=C\c2ccc(Cl)cc2)n1/N=C/c1ccc(Cl)cc1
6. O=C(CCc1nc(-c2cccc(Cl)c2)no1)Nc1ccccn1
7. Cc1c(C(N)=O)sc2nc(C)n(/N=c3\scc(-c4ccccc4)n3Cc3ccccc3)c(=O)c12
8. N#C/C(=C\c1ccc(Br)cc1)n1nnc2ccccc21

A)
1. 42.8% (inactive)
2. 28.9% (inactive)
3. 86.4% (inactive)
4. 17.8% (inactive)
5. 110% (inactive)
6. 89.4% (inactive)
7. -40.6% (active)
8. 1.73% (active)

Each of the following entries comes with a recorded value; kindly state growth for each.
1. COc1ccc(-c2cc(-c3ccc(Nc4nc(Nc5ccccc5)nc(Nc5ccc(Cl)cc5)n4)cc3)nc(N)c2C#N)cc1
2. C=C1C(=O)O[C@H]2[C@H]1CC/C(COC(=O)NCc1ccc(Cn3c(=O)sn(CCCCl)c3=O)cc1)=C\CC[C@@]1(C)O[C@@H]21

A)
["-20.4% (active)", "27.7% (inactive)"]

List the reported growth of each molecule below.
1. COc1ccc(-c2cc(-c3cc(OC)ccc3O)[nH]c(=O)c2C#N)cc1
2. CCn1nc(C#Cc2c(C)ccc3c(Nc4ccc(Cl)cc4)nccc23)c2c(N)ncnc21
3. COc1cc(/C=C/c2nc(Nc3ccc(S(=O)(=O)Nc4cc(C)on4)cc3)c3ccccc3n2)ccc1O

A)
1: 77.6% (inactive); 2: 18.8% (inactive); 3: 45% (inactive)

Items follow; give growth for each.
1. N#Cc1c(N)nc2c(nnn2-c2cccc(Br)c2)c1N
2. Cc1cccc(-c2cc(O)c(C(=O)N3CCOCC3)s2)c1

A)
1. 98.1% (inactive)
2. 47.5% (inactive)

Hey, can you go through the list below and give me growth for every item?
1. C[C@H]1[C@H](C)CC[C@]2(C(=O)N3CCN(C)CC3)CC[C@]3(C)C(=CC[C@@H]4[C@@]5(C)C/C(=C/c6cccnc6)C(=O)C(C)(C)[C@@H]5CC[C@]43C)[C@H]12
2. CN(C)c1ccc(/C=C/c2c(F)cccc2F)cc1
3. Cl.Fc1c[c-]c(-c2ccccn2)c(F)c1.[Pt].c1ccc([PH+](c2ccccc2)c2ccccc2[PH+](c2ccccc2)c2ccccc2)cc1
4. Oc1ccccc1-c1nc2ccccn2c1NCCN1CCOCC1

A)
1: -42.5% (active); 2: 94.6% (inactive); 3: -90.5% (active); 4: 86.9% (inactive)

Count: 2. Required value per item: growth.
1. N#C/C(=C\c1ccc(Br)cc1)n1nnc2cc(Cl)c(Cl)cc21
2. Cn1nnnc1-c1ccc(N)cc1

A)
21.9% (inactive)
93.2% (inactive)
